System: Human Hepatocytes
Assay: In Vitro Hepatocyte Stability Assay (Assay 4)
Type: in vitro ADME
Details: predicted blood clearance as percent of hepatic blood flow
test-readout: In vitro Human Hepatocytes % Qh @ 1 μM (assay 4) (% Qh)
Kindly answer with a numeric value in % Qh, unit omitted.

Sample C[C@@H]1C[C@@]2(Cc3ccc(C#N)cc3[C@]23N=C(N)N(CC2CC(F)(F)C2)C3=O)C[C@H](C)[C@H]1O.O=C(O)C(F)(F)F — what was its In vitro Human Hepatocytes % Qh @ 1 μM (assay 4)?
5.2

Quick one: CC[C@@H]1C[C@@]2(Cc3ccc(C#N)cc3[C@]23N=C(N)N(CC(C)(C)F)C3=O)C[C@H](C)[C@H]1O
13

Further, for C[C@@H]1CC2(Cc3ccc(Cl)cc3[C@]23N=C(N)N(Cc2ncccn2)C3=O)C[C@H](C)[C@H]1O (stereo partly drawn) ?
0

Next entry: Cc1cc(CN2C(=O)[C@]3(N=C2N)c2cc(C#N)ccc2C[C@@]32C[C@@H](C)[C@H](O)[C@@H](C)C2)ccn1.O=C(O)C(F)(F)F
19

Would you kindly repeat that for C[C@@H]1C[C@@]2(Cc3ccc(C#N)cc3[C@]23N=C(N)N(CCc2ccncc2)C3=O)C[C@H](C)[C@H]1O.O=C(O)C(F)(F)F ?
22.9

What do you get for C[C@@H]1C[C@@]2(Cc3ccc(C#N)cc3[C@]23N=C(N)N(CCC(F)(F)F)C3=O)C[C@H](C)[C@H]1O ?
0

Lookup C[C@@H]1C[C@@]2(Cc3ccc(-c4cncnc4)cc3[C@]23N=C(N)N(CC(C)(C)F)C3=O)C[C@H](C)[C@H]1O
6.1

Entry COC1CCC2(CC1)Cc1ccc(C#CC3CC3)cc1C21N=C(N)N(Cc2ncco2)C1=O (stereo not drawn) [drawing 13, reference compound] please
8.5

Note, next up: C[C@H]1C[C@@]2(CC[C@@H]1O)Cc1ccc(-c3cccnc3)cc1[C@]21N=C(N)N(Cc2ncccn2)C1=O
0

Subsequent entry: C[C@@H]1C[C@@]2(Cc3ccc(C#N)cc3[C@]23N=C(N)N(CC2(F)CCOCC2)C3=O)C[C@H](C)[C@H]1O
6.1

Next compound: COCCCOc1ccc2c(c1)C1(N=C(N)N(CC(F)F)C1=O)[C@]1(CC[C@H](OC)CC1)C2 (stereo partly drawn) [reference compound]
43

Let us now turn to CO[C@H]1CC[C@]2(CC1)Cc1ccc(CCC(C)C)cc1C21N=C(N)N(CC(F)(F)F)C1=O (stereo partly drawn) [reference compound]
88

// repeat for CC[C@@H]1C[C@]2(CC[C@H]1O)Cc1ccc(C#N)cc1[C@]21N=C(N)N(CC(C)(C)F)C1=O and report
12.4

Moving on to C[C@@H]1C[C@@]2(Cc3ccc(NC(=O)C(C)(C)F)cc3[C@]23N=C(N)N(CC(C)(C)F)C3=O)C[C@H](C)[C@H]1O
11

Would you mind doing COC1CCC2(CC1)Cc1ccc(C#CC3CC3)cc1C21N=C(N)N(Cc2ncco2)C1=O (stereo not drawn) [drawing 17, reference compound] as well?
8.5

Try the compound COC1CCC2(CC1)Cc1ccc(C#N)cc1[C@]21N=C(N)N(C)C1=O (stereo partly drawn) [drawing 18, reference compound]
14

Entry to check: COC1CCC2(CC1)Cc1ccc(C#N)cc1[C@]21N=C(N)N(C)C1=O (stereo partly drawn) [drawing 10, reference compound]
14

Consider next the compound C[C@H]1C[C@@]2(CC[C@@H]1O)Cc1ccc(C#N)cc1[C@]21N=C(N)N(CC2CC(F)(F)C2)C1=O in the same way.
4.2

Same read-out for C[C@@H]1C[C@@]2(Cc3ccc(C#N)cc3[C@]23N=C(N)N(CC(C)(C)F)C3=O)C[C@H](C)[C@H]1O ?
1.6

Another compound to look at: COC1CCC2(CC1)Cc1ccc(C#CC3CC3)cc1C21N=C(N)N(Cc2cncnc2)C1=O (stereo not drawn) [reference compound]
36

Next entry: COC1CCC2(CC1)Cc1ccc(C#N)cc1[C@]21N=C(N)N(C)C1=O (stereo partly drawn) [drawing 15, reference compound]
14

Request: CC[C@@H]1C[C@@]2(Cc3ccc(C#N)cc3[C@]23N=C(N)N(C[C@H]2COCCO2)C3=O)C[C@H](C)[C@H]1O
19.1

Also check C[C@@H]1C[C@@]2(Cc3ccc(C#N)cc3[C@]23N=C(N)N(CC(C)(C)Cl)C3=O)C[C@H](C)[C@H]1O
3.1

Moving on to the next compound: C[C@@H]1C[C@@]2(Cc3ccc(C#N)cc3[C@]23N=C(N)N(CC2CC2)C3=O)C[C@H](C)[C@H]1O
0

This collection of values is drawn from patent US9018391B2.
